# Experiment description: qHTS of pediatric cancer cell lines to identify multiple opportunities for drug repurposing: Primary screen for BT-37 cells (AID 1347094); further: potency means the concentration at half of the fitted maximal effect
# Condition set: BT-37 viability, CellTiter-Glo luminescence, 48 h; series mostly up to 57.3 µM
Records with an inconclusive call do not appear. The source made the active and inactive calls. The call rests on the fitted dose curve; in most records, active means well fitted cell-killing curve with a large enough effect; inconclusive means small, poorly fitted or top-dose-only effect; inactive means flat fitted curve, though single readings scatter.

>  <Compound>
CC(N)C(=O)OC(C)(C)Cc1ccc(Cl)cc1 (stereo unspecified)

>  <Potency>
inactive

$$$$
>  <Compound>
CCCCCCOc1ccccc1C(N)=O

>  <Potency>
inactive

$$$$
>  <Compound>
Nc1ccc(C(=O)O)c(O)c1

>  <Potency>
inactive

$$$$
>  <Compound>
N=C1N=C(N)c2cc3ccccc3cc21

>  <Potency>
15.9 µM (active)

$$$$
>  <Compound>
Cc1c(Nc2ncccc2C(=O)O)cccc1C(F)(F)F

>  <Potency>
inactive

$$$$
>  <Compound>
C/C(=N\O)c1ccc(OCC(=O)N2CCCCC2)cc1

>  <Potency>
inactive

$$$$
>  <Compound>
COc1cc2c3cc1Oc1cc(ccc1O)C[C@@H]1c4c(cc(OC)c(O)c4Oc4ccc(cc4)C[C@@H]3N(C)CC2)CC[N+]1(C)C

>  <Potency>
inactive

$$$$
>  <Compound>
CC(C(=O)O)c1ccc(C(=O)c2ccccc2)s1 (stereo unspecified)

>  <Potency>
inactive

$$$$
>  <Compound>
COC(=O)c1nc(Cl)c(Cl)nc1N

>  <Potency>
13.8 µM (active)

$$$$
>  <Compound>
CC(C(=O)O)c1ccc(C(=O)c2cccs2)cc1 (stereo unspecified)

>  <Potency>
inactive

$$$$
>  <Compound>
COc1cccc2c1C(=O)c1c(O)c3c(c(O)c1C2=O)C[C@@](O)(C(=O)CO)C[C@@H]3O[C@H]1C[C@H](N)[C@H](O[C@@H]2CCCCO2)[C@H](C)O1

>  <Potency>
0.246 µM (active)

$$$$

* * *

# System tested: D(1A) dopamine receptor (Homo sapiens)
# Experiment description: HTS Assay for Allosteric Agonists of the Human D1 Dopamine Receptor: Primary Screen for Agonists (AID 488981)
# Condition set: Inducible HEK293 T-REx D1 cells, calcium-flux fluorescence, 180 s kinetic; series mostly up to 41.8 µM
# Protocol: Dopamine receptors (DARs) are involved in the etiology and/or therapy of a number of neuropsychiatric and endocrine disorders. […] Freshly passaged cells are plated in 1536 well black, clear bottom plates at a density of 4000 cells/well in 3 ul of complete media containing 1x tetracycline inducer. […] Following the 180 second read, 1 ul of an EC20 of dopamine is delivered by an onboard pipette head. […]
Results filed as inconclusive are left out. The source made the active and inactive calls. Calls come from the whole dose curve; as a rule, active = well fitted activation curve with a large enough effect; inconclusive = small, poorly fitted or top-dose-only effect; inactive = flat fitted curve, though single readings scatter.
Value kind: outcome

>  <Compound>
NC(CCCP(=O)(O)O)C(=O)O (stereo not given)

>  <Measured result>
inactive

$$$$
>  <Compound>
COc1cc(SC)ccc1C(=O)N1CCC(Cc2ccccc2)CC1

>  <Measured result>
inactive

$$$$
>  <Compound>
CCCCCCCC/C=C\CCCCCCCC(=O)NCCO

>  <Measured result>
inactive

$$$$
>  <Compound>
COc1cc2c(CCNC(C)=O)c[nH]c2cc1Cl

>  <Measured result>
inactive

$$$$
>  <Compound>
CCOC(=O)N1CCN(/[N+]([O-])=N/Oc2ccc([N+](=O)[O-])cc2[N+](=O)[O-])CC1

>  <Measured result>
inactive

$$$$
>  <Compound>
CCN1/C(=C/C(C)=O)Sc2ccc(OC)cc21

>  <Measured result>
inactive

$$$$
>  <Compound>
COc1cccc(OC)c1OCCNCC1COc2ccccc2O1 (stereo not given)

>  <Measured result>
inactive

$$$$
>  <Compound>
O=P(O)(O)C(Cl)(Cl)P(=O)(O)O

>  <Measured result>
inactive

$$$$
>  <Compound>
O=C(Nc1cccc(C(=O)Nc2ccc(S(=O)(=O)O)c3cc(S(=O)(=O)O)cc(S(=O)(=O)O)c23)c1)Nc1cccc(C(=O)Nc2ccc(S(=O)(=O)O)c3cc(S(=O)(=O)O)cc(S(=O)(=O)O)c23)c1

>  <Measured result>
inactive

$$$$
>  <Compound>
CN(C)CCCO[C@@H]1[C@H]2OC(C)(C)O[C@H]2O[C@@H]1[C@H](O)CO

>  <Measured result>
inactive

$$$$
